B1: Syntaxin-binding protein 4, residues 493 to 538; numbered along this chain, Q6ZWJ1 (parent)
chain: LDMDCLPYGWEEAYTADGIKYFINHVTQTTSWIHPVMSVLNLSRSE

# Variants of: B1
# test-name: abundance fitness (aPCA) (normalised: wild type 0, dead -1); higher = more abundant; growth selection in yeast, the domain comes from the species named
# condition-description: Homo sapiens

{"mutation-string": "T27V", "abundance fitness": -0.872}
{"mutation-string": "E46V", "abundance fitness": -0.365}
{"mutation-string": "L1H", "abundance fitness": -0.269}
{"mutation-string": "Q28I", "abundance fitness": -0.664}
{"mutation-string": "R44N", "abundance fitness": -0.104}
{"mutation-string": "N24R", "abundance fitness": -0.876}
{"mutation-string": "I23Y", "abundance fitness": -0.209}
{"mutation-string": "F22E", "abundance fitness": -0.789}
{"mutation-string": "V36D", "abundance fitness": 0.168}
{"mutation-string": "P7H", "abundance fitness": -0.669}
{"mutation-string": "C5P", "abundance fitness": -0.291}
